Source listed as patent US20250250357A1.

# target.desc: T1, human MSLN-R3-3 polypeptide (human)
# T1 construct: also called human MSLN-R3-3 protein; hMSLN-R3-3
# experimental.details: ELISA, coated MSLN-R3-3;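 further: chimeric antibodies in serial dilution bound to plate-coated antigen for 2 h at 37 °C, with a negative control antibody alongside, and TMB colour development stopped with HCl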
# OD450 at 0.01 nM listing for each entry below
# unit: OD450 | format: bare number

query: Look up OD450 at 0.01 nM: S009-F1.2.12 (antibody, human IgG1, kappa, V domains shown) VH: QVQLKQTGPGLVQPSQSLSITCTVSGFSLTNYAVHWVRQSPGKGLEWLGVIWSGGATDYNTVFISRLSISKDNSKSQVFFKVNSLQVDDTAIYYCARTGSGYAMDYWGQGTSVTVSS VL: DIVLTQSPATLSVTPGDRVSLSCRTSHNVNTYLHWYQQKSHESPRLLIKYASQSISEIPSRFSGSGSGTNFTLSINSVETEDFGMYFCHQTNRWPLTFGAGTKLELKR
result: 0.06

Continuing:
query: Recorded OD450 at 0.01 nM for S009-F1.35.24 (antibody, human IgG1, kappa, V domains shown, Human-murine chimeric antibody, human IgG1/kappa constant regions) VH: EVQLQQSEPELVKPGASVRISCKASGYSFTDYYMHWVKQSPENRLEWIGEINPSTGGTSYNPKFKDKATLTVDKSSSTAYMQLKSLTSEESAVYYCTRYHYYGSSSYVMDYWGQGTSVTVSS VL: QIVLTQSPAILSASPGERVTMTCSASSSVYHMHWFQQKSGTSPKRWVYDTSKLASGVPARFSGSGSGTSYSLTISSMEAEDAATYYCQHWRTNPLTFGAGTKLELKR , please?
result: 0.07

query: Query (binder): S009-F1.62.9 (antibody, human IgG1, kappa, V domains shown, Human-murine chimeric antibody, human IgG1/kappa constant regions) VH: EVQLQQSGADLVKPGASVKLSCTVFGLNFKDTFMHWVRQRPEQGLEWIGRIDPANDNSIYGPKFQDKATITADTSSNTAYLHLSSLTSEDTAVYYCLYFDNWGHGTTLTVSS VL: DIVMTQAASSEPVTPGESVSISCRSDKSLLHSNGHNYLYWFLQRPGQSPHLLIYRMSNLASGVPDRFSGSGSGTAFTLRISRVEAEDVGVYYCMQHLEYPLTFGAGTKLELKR ; field requested: OD450 at 0.01 nM
result: 0.07

query: Any idea what OD450 at 0.01 nM was measured for S009-F1.56.1 (antibody, human IgG1, kappa, V domains shown, Human-murine chimeric antibody, human IgG1/kappa constant regions) VH: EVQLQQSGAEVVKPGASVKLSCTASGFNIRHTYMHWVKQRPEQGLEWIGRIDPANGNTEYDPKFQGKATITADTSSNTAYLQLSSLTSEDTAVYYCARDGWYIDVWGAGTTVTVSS VL: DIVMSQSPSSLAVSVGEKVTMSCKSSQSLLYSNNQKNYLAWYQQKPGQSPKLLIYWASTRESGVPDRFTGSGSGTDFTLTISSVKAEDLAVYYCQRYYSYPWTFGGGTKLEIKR ?
result: 0.08
